assay: Pharmacokinetic profile of netupitant in humans after a single oral dose; type: in vivo; conditions: human, plasma; 300 mg oral, healthy volunteers, mean, N = 4
test.readout: Tmax (h)

>>> meas_value("Cc1ccccc1-c1cc(N2CCN(C)CC2)ncc1N(C)C(=O)C(C)(C)c1cc(C(F)(F)F)cc(C(F)(F)F)c1")
5

* * *

test: Pharmacokinetic profile of netupitant in humans after a single oral dose; assay type: in vivo; details: human, plasma; 450 mg oral, healthy volunteers, mean, N = 4
test.readout: Cmax (ng/mL)

>>> meas_value("Cc1ccccc1-c1cc(N2CCN(C)CC2)ncc1N(C)C(=O)C(C)(C)c1cc(C(F)(F)F)cc(C(F)(F)F)c1 [netupitant]")
1130
